Target: recombinant HDAC1 (Homo sapiens)
Assay: Recombinant HDAC1 inhibition
Format: biochemical
pIC50: −log10 of the molar value.

structure_smiles	pIC50
COc1cccc(CC(=O)Nc2ccc(C(=O)NO)cc2)c1	6.59

---

Target: recombinant HDAC1 (Homo sapiens, UniProt Q13547)
Sequence (Q13547 whole entry): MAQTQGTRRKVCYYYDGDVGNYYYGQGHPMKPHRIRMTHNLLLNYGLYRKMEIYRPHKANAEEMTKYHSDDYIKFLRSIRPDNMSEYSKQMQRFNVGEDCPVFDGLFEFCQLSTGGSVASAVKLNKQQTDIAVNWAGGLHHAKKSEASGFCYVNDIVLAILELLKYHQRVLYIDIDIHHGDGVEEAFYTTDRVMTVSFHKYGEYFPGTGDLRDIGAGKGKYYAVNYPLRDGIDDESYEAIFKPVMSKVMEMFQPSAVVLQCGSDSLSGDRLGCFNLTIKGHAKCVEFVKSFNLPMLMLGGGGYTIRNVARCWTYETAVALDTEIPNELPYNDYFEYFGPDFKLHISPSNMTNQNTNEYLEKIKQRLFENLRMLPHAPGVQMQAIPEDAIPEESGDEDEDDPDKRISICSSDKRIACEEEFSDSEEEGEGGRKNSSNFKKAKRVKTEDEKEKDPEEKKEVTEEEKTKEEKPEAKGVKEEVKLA
Test: Recombinant HDAC1 inhibition
Type: biochemical
Settings: read-out: IC50 recombinant HDAC 1

compound	IC50
COc1ccccc1CNC(=O)c1ccc(C(=O)NO)cc1 [Compound D16, reference compound]	> 10 µM
